assayed.target: Metabotropic glutamate receptor 2 (Homo sapiens, UniProt Q14416)
Sequence (Q14416 whole entry): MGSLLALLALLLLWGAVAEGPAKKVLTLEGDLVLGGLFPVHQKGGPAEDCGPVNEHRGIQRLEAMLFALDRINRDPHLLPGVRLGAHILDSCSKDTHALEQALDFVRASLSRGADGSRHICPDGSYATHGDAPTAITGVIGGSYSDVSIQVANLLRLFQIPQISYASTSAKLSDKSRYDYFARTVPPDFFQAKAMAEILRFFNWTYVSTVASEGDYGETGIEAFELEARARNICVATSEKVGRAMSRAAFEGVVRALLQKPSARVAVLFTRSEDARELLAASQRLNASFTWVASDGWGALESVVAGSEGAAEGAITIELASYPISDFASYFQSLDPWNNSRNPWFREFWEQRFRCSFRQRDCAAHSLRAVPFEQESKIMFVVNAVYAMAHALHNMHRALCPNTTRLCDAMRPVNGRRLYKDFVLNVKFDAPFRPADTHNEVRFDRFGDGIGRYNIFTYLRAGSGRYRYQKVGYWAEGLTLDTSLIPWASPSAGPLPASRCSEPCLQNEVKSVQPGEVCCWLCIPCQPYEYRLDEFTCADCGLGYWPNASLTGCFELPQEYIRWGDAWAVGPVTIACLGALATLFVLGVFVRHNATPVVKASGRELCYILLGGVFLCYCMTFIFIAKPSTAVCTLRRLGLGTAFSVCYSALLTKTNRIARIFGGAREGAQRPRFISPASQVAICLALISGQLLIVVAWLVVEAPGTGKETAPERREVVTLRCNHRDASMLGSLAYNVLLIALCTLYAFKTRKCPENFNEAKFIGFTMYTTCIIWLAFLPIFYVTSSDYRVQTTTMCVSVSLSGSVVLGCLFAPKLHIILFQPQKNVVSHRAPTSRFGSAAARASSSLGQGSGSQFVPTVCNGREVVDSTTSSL
measurement.notes: Ability to block 1S,3R-ACPD-induced inhibition of forskolin stimulated cyclic-AMP in non-neuronal cell line expressing human Metabotropic glutamate receptor 2
Format: functional
measure.name: IC50 (nM)
One number for each entry, in nM.

Please review the entries below; each comes with its answer.
compound: NC(CCCCc1ccccc1)(C(=O)O)[C@H]1C[C@@H]1C(=O)O (some centres undefined)
IC50 (nM): 450
//
compound: NC(CCc1ccsc1)(C(=O)O)[C@H]1C[C@@H]1C(=O)O (some centres undefined)
IC50 (nM): 1000

Attention now turns to another entry.
Qu. Name the recorded IC50 of the item CC(C)C[C@](N)(C(=O)O)C1C[C@@H]1C(=O)O (some centres undefined) in your answer.
Ans. 1600

====

measurement.notes: Inhibitory activity for Group II Metabotropic glutamate receptor in rat forebrain membranes by using [3H]glutamate radioligand
Type: cell membranes, Membrane
measure.name: log10 IC50 (log10 of the value in nM)
Each number you see is log10 of IC50, and the unit inside the log is nM.

compound: NC(CCCc1ccccc1)(C(=O)O)[C@H]1C[C@@H]1C(=O)O (stereo partly specified)
log10 IC50: 2.80

compound: N[C@@](CCC1CCCCC1)(C(=O)O)C1C[C@@H]1C(=O)O (stereo partly specified)
log10 IC50: 2.58

compound: N[C@@](CCCC(c1ccccc1)c1ccccc1)(C(=O)O)C1C[C@@H]1C(=O)O (stereo partly specified)
log10 IC50: 3.85

Record log10 IC50 for all entries; do not skip any.
1. CC(C)CC[C@](N)(C(=O)O)C1C[C@@H]1C(=O)O (stereo partly specified)
2. CC(C[C@](N)(C(=O)O)C1C[C@@H]1C(=O)O)c1ccccc1 (stereo partly specified)
3. N[C@@](CCC(c1ccccc1)c1ccccc1)(C(=O)O)C1C[C@@H]1C(=O)O (stereo partly specified)
4. N[C@@](CC1c2ccccc2Oc2ccccc21)(C(=O)O)[C@H]1C[C@@H]1C(=O)O
5. NC(CC1CCCCC1)(C(=O)O)[C@H]1C[C@@H]1C(=O)O (stereo partly specified)

Ans.
[3.04, 2.30, 3.85, 1.00, 2.36]

// each listed compound needs a value for log10 IC50
1. N[C@@](CCc1ccc2ccccc2c1)(C(=O)O)C1C[C@@H]1C(=O)O (stereo partly specified)
2. CCCC[C@](N)(C(=O)O)C1C[C@@H]1C(=O)O (stereo partly specified)

Ans.
[3.45, 3.15]

====

measurement.notes: Inhibitory activity for Group II Metabotropic glutamate receptor in rat forebrain membranes by using [3H]glutamate radioligand
Format: cell membranes, Membrane
Please go through the items and note down their pIC50.
Give bare numbers, as −log10 of the molar value.

compound: CCCCCCCC[C@](N)(C(=O)O)C1C[C@@H]1C(=O)O (stereo not given in full)
pIC50: 5.77
--
compound: N[C@@](CC1CCC1)(C(=O)O)C1C[C@@H]1C(=O)O (stereo not given in full)
pIC50: 4.53
--
compound: C[C@](N)(C(=O)O)C1C[C@@H]1C(=O)O (stereo not given in full)
pIC50: 5.21
--
compound: CC(C)C[C@](N)(C(=O)O)C1C[C@@H]1C(=O)O (stereo not given in full)
pIC50: 6.15
--
compound: Cn1cc(CCC(N)(C(=O)O)[C@H]2C[C@@H]2C(=O)O)c2ccccc21 (stereo not given in full)
pIC50: 6.55
--
compound: CCC[C@](N)(C(=O)O)C1C[C@@H]1C(=O)O (stereo not given in full)
pIC50: 5.68

Pending compound:
Qu. Entry N[C@@H](C(=O)O)C1C[C@@H]1C(=O)O (stereo not given in full) needs its pIC50 filled in; supply it.
Ans. 6.33
